pKi: recorded values
- study-target: Kappa-type opioid receptor (Homo sapiens)
- Sequence (P41145 whole entry): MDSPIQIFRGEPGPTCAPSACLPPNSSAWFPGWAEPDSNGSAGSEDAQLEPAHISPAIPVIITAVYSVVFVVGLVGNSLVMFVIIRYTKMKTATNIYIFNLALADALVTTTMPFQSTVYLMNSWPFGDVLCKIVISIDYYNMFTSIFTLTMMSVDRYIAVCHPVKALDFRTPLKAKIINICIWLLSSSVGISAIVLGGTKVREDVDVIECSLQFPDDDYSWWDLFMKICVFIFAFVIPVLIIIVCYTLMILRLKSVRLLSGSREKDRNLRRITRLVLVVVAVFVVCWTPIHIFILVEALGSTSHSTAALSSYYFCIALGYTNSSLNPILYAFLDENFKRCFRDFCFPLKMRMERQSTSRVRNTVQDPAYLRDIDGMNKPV
pKi: −log10 of the molar value.
property: pKi

> print(dat)
                                smiles.repr  observed.value
1  CC(C)C[C@@H](NC(=O)[C@H](Cc1ccccc1)NC(=O)CNC(=O)[C@@H](C)NC(=O)[C@@H](N)Cc1cc[n+]([O-])cc1)C(=O)O          < 5.00
2  Cc1cc(C(N)=O)cc(C)c1C[C@H](N)C(=O)N[C@H](C)C(=O)NCC(=O)N[C@@H](Cc1ccccc1)C(=O)N[C@H](CC(C)C)C(=O)O            5.62
3  CC(C)C[C@@H](NC(=O)[C@H](Cc1ccccc1)NC(=O)CNC(=O)[C@@H](C)NC(=O)[C@@H](N)Cc1ccc2nc(N)sc2c1)C(=O)O          < 5.00

* * *

- study-target: Delta-type opioid receptor (Homo sapiens, UniProt P41143)
- Sequence (P41143 whole entry): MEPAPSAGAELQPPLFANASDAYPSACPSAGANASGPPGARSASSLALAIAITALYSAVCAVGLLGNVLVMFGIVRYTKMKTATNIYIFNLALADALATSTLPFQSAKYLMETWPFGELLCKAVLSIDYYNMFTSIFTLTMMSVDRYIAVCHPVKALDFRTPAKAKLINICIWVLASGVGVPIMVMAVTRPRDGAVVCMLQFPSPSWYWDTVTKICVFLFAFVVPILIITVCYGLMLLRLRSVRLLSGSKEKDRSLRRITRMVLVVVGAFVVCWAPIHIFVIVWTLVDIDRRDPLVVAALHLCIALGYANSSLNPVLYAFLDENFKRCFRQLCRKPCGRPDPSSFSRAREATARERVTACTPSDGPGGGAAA
pEC50: −log10 of the molar value. Where a SMILES comes first, the peptide text is derived from it. [ ]: non-standard residue; d: D form. Phe(2,6-Me2,4-CONH2) = Cc1cc(C(N)=O)cc(C)c1C[C@H](N)C(=O)O; Phe(4-CONH2) = NC(=O)c1ccc(C[C@H](N)C(=O)O)cc1
Output 1 (yes) for pEC50 not less than 7; output 0 (no) otherwise.

molecule	study-target	assigned-category
CSCC[C@H](NC(=O)[C@H](Cc1ccccc1)NC(=O)CNC(=O)CNC(=O)[C@@H](N)Cc1ccc(C(N)=O)cc1)C(=O)O (H-[Phe(4-CONH2)]GGFM-OH)	Delta-type opioid receptor (Homo sapiens, UniProt P41143)	1 (yes)
CC1(C)SSC(C)(C)[C@@H](NC(=O)[C@@H](N)Cc2ccc(C(N)=O)cc2)C(=O)NCC(=O)N[C@@H](Cc2ccccc2)C(=O)N[C@H]1C(=O)O	Delta-type opioid receptor (Homo sapiens, UniProt P41143)	0 (no)
Cc1cc(C(N)=O)cc(C)c1C[C@H](N)C(=O)N[C@H](CO)C(=O)NCC(=O)N[C@@H](Cc1ccccc1)C(=O)N[C@@H](CC(C)C)C(=O)N[C@H](C(=O)O)[C@@H](C)O	Delta-type opioid receptor (Homo sapiens, UniProt P41143)	1 (yes)
Cc1cc(C(N)=O)cc(C)c1C[C@H](N)C(=O)NCC(=O)NCC(=O)N[C@@H](Cc1ccccc1)C(=O)N[C@@H](CC(C)C)C(=O)O (H-[Phe(2,6-Me2,4-CONH2)]GGFL-OH)	Delta-type opioid receptor (Homo sapiens, UniProt P41143)	1 (yes)

These measurements were taken from ChEMBL document CHEMBL1139195.
